test system: SK-MEL-5; assay: NCI tumour cell line growth inhibition, 48 h
The source made the active and inactive calls. Rule as the data show it: active = GI50 up to about 1.1 µM and inactive = higher.
Record form. Attribute: GI50. Fill in for each entry.

Worked cases, GI50 given:
[
  {
    "COMPOUND": "CCCCC(=O)OC[n+]1ccc2c(C)c3[nH]c4ccc(OC)cc4c3c(C)c2c1",
    "GI50": "1.22 µM (inactive)"
  },
  {
    "COMPOUND": "CN(C)c1ccc(/C=C2\\C[C@H]3[C@@H]4CC=C5C[C@@H](O)CC[C@]5(C)[C@H]4CC[C@]3(C)[C@H]2O)cc1",
    "GI50": "17.6 µM (inactive)"
  },
  {
    "COMPOUND": "CCOC(=O)Cn1sc2ncc([N+](=O)[O-])cc2c1=O",
    "GI50": "27.5 µM (inactive)"
  }
]

Now consider the entry below.
Value lookup for GI50; key = CCOC(=O)n1c(=O)nc2c3c(ncn21)Oc1c(c(-c2ccccc2)nn1-c1ccccc1)C3c1ccc(Cl)cc1 (centres undefined)
1.7 µM (inactive)

----------
test system: 786-0; test: NCI tumour cell line growth inhibition, 48 h
Activity calls are given as the source filed them. Cut-off read from the data, not from the text of the source: active = GI50 up to about 1.1 µM and inactive = higher.
Consider the following compounds; for each one, report its GI50.

[
  {
    "COMPOUND": "CC(C)C(C)C(O)C(O)C(C)C1CCC2C3COC(=O)C4CC(O)C(O)CC4(C)C3CCC12C (centres undefined)",
    "GI50": "> 100 µM (inactive)"
  },
  {
    "COMPOUND": "O=C1C[C@@H](c2ccc(O)cc2)[C@@]2(O1)C(=O)O[C@H]([C@@H](O)CO)[C@@H]2O",
    "GI50": "> 100 µM (inactive)"
  },
  {
    "COMPOUND": "CCOC(=O)c1sc2c(C(=O)OCC)n3ccccc3c2c1N",
    "GI50": "36.2 µM (inactive)"
  }
]

Turning now to a further record.
What does the record list as GI50 for `C=C(C)[C@H]1C=C[C@@H](OC(=O)c2cccnc2)[C@@]23CO[C@@](C)([C@H](OC(=O)c4cccnc4)[C@@]4(OC(C)=O)C[C@H](C)[C@H](OCCC)[C@@H]4[C@H]2OC(C)=O)[C@H]13` ?
> 15 µM (inactive)

----------
system: OVCAR-8; experiment: NCI tumour cell line growth inhibition, 48 h
Activity calls are given as the source filed them. No stated cut-off is given here; in the data, active = GI50 up to about 1.1 µM and inactive = higher.
Outcome field: choose from t (active), f (inactive)

Any idea what this test logged for O=[N+]([O-])c1cccc(C(O)/C(=N/Nc2ccccc2)C2Nc3ccc([N+](=O)[O-])cc3N=C2O)c1 (stereo unspecified) ?
f

For this compound, state the assay outcome: `O=C(CC(O)(C(F)(F)Cl)C(F)(F)Cl)CC(O)(C(F)(F)Cl)C(F)(F)Cl`
f

Would you mind telling me which call this test gave `Nc1ccc2c(c1)S(=O)(=O)c1cc(N)ccc1-2` ?
f

State the result this test recorded for COc1ccc(C2=CC(c3ccc4c(c3)OCO4)c3c(c4ccccc4oc3=O)O2)cc1OC (stereo unspecified) .
f

Just curious, what result did `CN1C(c2ccccc2)=CC(=O)C(O)=C(c2ccccc2)S1(=O)=O` get here?
f

----------
tested on: Malme-3M; test: NCI tumour cell line growth inhibition, 48 h
Calls of active or inactive are those of the source. Cut-off read from the data, not from the text of the source: active = GI50 up to about 1.1 µM and inactive = higher.
API: response.call in active, inactive

Worked cases, answers included:
[
  {
    "COMPOUND": "O/N=C/c1ccc(O)c(O)c1",
    "QUALITATIVE LABEL": "inactive"
  },
  {
    "COMPOUND": "Cc1cc(N(CCC#N)CCC#N)ccc1/N=N/c1ccc(C(=O)O)cc1",
    "QUALITATIVE LABEL": "inactive"
  },
  {
    "COMPOUND": "CC(C)(C)C(O)CC(O)(C(F)(F)F)C(F)(F)F (stereo unspecified)",
    "QUALITATIVE LABEL": "inactive"
  },
  {
    "COMPOUND": "CC(=O)c1c(O)ccc2c1c1c(n2C)C(=O)c2ccccc2C1=O",
    "QUALITATIVE LABEL": "active"
  }
]

// return assay outcome for CC(=O)O[C@H]1CC[C@H]2[C@@H]3CCC(C(C)=O)[C@H](C(=O)O)[C@H]3CC[C@]12C (stereo partly specified)
inactive

Assay outcome for `CC1=C(SCCO)C(=O)c2ccccc2C1=O` : what was it?
inactive

# outcome recorded in this test, key = `Nc1c(S(=O)(=O)O)cc(S(=O)(=O)O)c2ccc(/N=N/c3ccc(/C=C/c4ccc(/N=N/c5ccc6c(S(=O)(=O)O)cc(S(=O)(=O)O)c(N)c6c5O)cc4S(=O)(=O)O)c(S(=O)(=O)O)c3)c(O)c12`
inactive

Which outcome was entered for the compound `O=C1C(NS(=O)(=O)c2ccccc2)=C(N(Cc2ccccc2)Cc2ccccc2)C(=O)c2ccccc21` in this test?
active

Recorded test outcome, item `CC(=O)CC(=O)Nn1c(-c2cccs2)nc2ccc(I)cc2c1=O`
inactive

Record lookup: outcome of this test for `Brc1ccc2[nH]cc([C@@H]3CN[C@@H](c4c[nH]c5ccc(Br)cc45)CN3)c2c1` ?
inactive

Which outcome was entered for the compound CCc1cccc(C(C)C)c1NC(=O)/C(=N\NC(N)=O)C(C(=O)OC)c1cnc2ccccc2n1 (stereo unspecified) in this test?
inactive

Call for entry `COC(=O)c1cnn2c1n[n+]([O-])c1ccccc12` :
inactive

----------
test system: SK-OV-3; experiment: NCI tumour cell line growth inhibition, 48 h
Active and inactive are the calls of the source. Cut-off read from the data, not from the text of the source: active = GI50 up to about 1.1 µM and inactive = higher.
Entry note: the call must match one of active, inactive

[
  {
    "MOLECULE": "Cc1cccc(CP(Cc2cccc(C)c2)CC2(Cp3c4ccccc4c4ccccc43)COC2)c1",
    "TARGET OF ASSAY": "SK-OV-3",
    "QUALITATIVE LABEL": "inactive"
  },
  {
    "MOLECULE": "C#CCNC(CCCNC(=N)N)C(=O)O (stereo not drawn)",
    "TARGET OF ASSAY": "SK-OV-3",
    "QUALITATIVE LABEL": "inactive"
  },
  {
    "MOLECULE": "O=c1cc(-c2ccc(O)cc2)oc2cc(O)cc(O)c12",
    "TARGET OF ASSAY": "SK-OV-3",
    "QUALITATIVE LABEL": "inactive"
  },
  {
    "MOLECULE": "CC#Cc1c(O)c2c(c(O)c1C#CC)C(=O)c1ccccc1C2=O",
    "TARGET OF ASSAY": "SK-OV-3",
    "QUALITATIVE LABEL": "inactive"
  },
  {
    "MOLECULE": "O=C1C(Br)=C(c2ccccc2)C(c2ccccc2)=C1c1ccccc1",
    "TARGET OF ASSAY": "SK-OV-3",
    "QUALITATIVE LABEL": "inactive"
  }
]

Call for entry `CCOC(=O)C1=C(C#N)S(=O)(=O)c2c(oc(C)c2C)N1` :
inactive

Status in this test for `O=c1oc2c3ccc4ccccc4c3n(Cc3nc4ccccc4[nH]3)c2c2ccccc12` ?
inactive

Test call, this molecule: `Cc1c(C)c(C)c(-n2[nH]c(=O)n(C)c2=O)c(C)c1C`
inactive

Given `c1ccc(P(=C2c3ccccc3-c3ccccc32)(c2ccccc2)c2ccccc2)cc1` , state the outcome it received in this test.
inactive

Check the results log: what was the call for `N/C(=N\O)N/N=C/c1ncccc1O` ?
inactive

What was the test verdict on `Cc1cccc2c(NCCCN(C)C)c3c([N+](=O)[O-])ccc(C)c3nc12` ?
active

----------
tested on: SR; test: NCI tumour cell line growth inhibition, 48 h
Calls of active or inactive are those of the source. Rule as the data show it: active = GI50 up to about 1.1 µM and inactive = higher.
One label from this list, please: active, inactive

[
  {
    "COMPOUND": "COC(=O)CC(=O)OC1C[C@@H]2CCC3C(C)(C)CCC[C@]3(C)C23CC[C@@]1(C)C3 (some centres undefined)",
    "QUALITATIVE LABEL": "inactive"
  }
]

Query: recorded result category for CC(=O)OCC1OC(SC2=NC(=O)/C(=C/c3ccccc3)S2)C(OC(C)=O)C(OC(C)=O)C1OC(C)=O (centres undefined) in this test
inactive

Dear all, I need the recorded test outcome for O=C(O)CC1CC=C[C@H]2c3cc4c(cc3C(=O)NC12)OCO4 (some centres undefined) , thank you.
inactive

Per the records of this test, what outcome belongs to `Cc1ccc2sc3cc(=O)cc(C)c-3nc2c1` ?
inactive

Query: recorded result category for C=C(C)[C@@H]1CC[C@]2(C(=O)O)CC[C@]3(C)[C@H](CC[C@@H]4[C@@]5(C)CC[C@H](O)C(C)(C)[C@@H]5CC[C@]43C)[C@@H]12 [BETULINIC ACID] in this test
inactive

----------
test system: HCC 2998; assay: NCI tumour cell line growth inhibition, 48 h
Calls of active or inactive are those of the source. No stated cut-off is given here; in the data, active = GI50 up to about 1.1 µM and inactive = higher.
Choose the fitting class; nothing outside Yes (active), No (inactive) is accepted.

Record excerpt, results attached:
[
  {
    "COMPOUND": "CC(=O)CC(=O)Nn1c(-c2cccs2)nc2ccc(I)cc2c1=O",
    "QUALITATIVE LABEL": "No"
  },
  {
    "COMPOUND": "Nc1nc(Cl)c(CO)c(NCC2(CO)CC(CCc3ccccc3)C2)n1 (centres undefined)",
    "QUALITATIVE LABEL": "No"
  },
  {
    "COMPOUND": "COc1ccc(-c2cn3ccsc3n2)cc1",
    "QUALITATIVE LABEL": "No"
  },
  {
    "COMPOUND": "O=C1C2=C(SCCS2)C(=O)c2c(Sc3ccc(Cl)cc3)c(Sc3ccc(Cl)cc3)c(Sc3ccc(Cl)cc3)c(Sc3ccc(Cl)cc3)c21",
    "QUALITATIVE LABEL": "No"
  },
  {
    "COMPOUND": "Cc1nn(C)c(=O)c2nn(-c3ccccc3)c(C)c12",
    "QUALITATIVE LABEL": "No"
  },
  {
    "COMPOUND": "CC1(C)[C@@H]2C[C@H]1[C@@H](Cc1cccc(C[C@H]3c4cc(-c5ccccn5)ncc4[C@H]4C[C@@H]3C4(C)C)c1)c1cc(-c3ccccn3)ncc12",
    "QUALITATIVE LABEL": "No"
  },
  {
    "COMPOUND": "CC1=C(SCCO)C(=O)c2ccccc2C1=O",
    "QUALITATIVE LABEL": "No"
  },
  {
    "COMPOUND": "CCCCCCCCCC1CC(=O)OC2=C1C(=O)CCC2 (centres undefined)",
    "QUALITATIVE LABEL": "No"
  }
]

Kindly review the next compound as well.
GET /call?item= `CC[n+]1c(/C=C/c2ccc(N(CCCl)CCCl)cc2)ccc2cc(NC(=O)/C=C/c3ccccc3)ccc21` returns the recorded outcome of this test.
Yes
